test system: Caenorhabditis elegans N2; test: mean nematode size ln(EXT) after 48 h, plate-adjusted (DMSO control set to 6) (ln(EXT), control-adjusted); higher = larger nematodes / less growth inhibition; conditions: 1 µM; exposure time 48 h
measured quantity: mean nematode size ln(EXT) (ln)
Just the number, please, no unit attached.

These solved cases illustrate the format of a correct answer.
- molecule: "Oc1ccc2ccccc2c1N=Nc1ccccc1"
  mean nematode size ln(EXT) (ln): 5.88
- molecule: "OCCC(F)(F)C(F)(F)C(F)(F)C(F)(F)C(F)(F)C(F)(F)C(F)(F)C(F)(F)F [1,1,2,2-Tetrahydroperfluoro-1-decanol]"
  mean nematode size ln(EXT) (ln): 5.67
- molecule: "Cc1ccc(O)c(C)c1"
  mean nematode size ln(EXT) (ln): 5.97
- molecule: "O=C(O)c1cc(/N=N/c2ccc(S(=O)(=O)Nc3ccccn3)cc2)ccc1O"
  mean nematode size ln(EXT) (ln): 5.91
- molecule: "Oc1cc2ccccc2c2ccccc12"
  mean nematode size ln(EXT) (ln): 5.85

Write down measured mean nematode size ln(EXT) (ln) (Caenorhabditis elegans N2) for this molecule. O=C(O)C(F)(F)C(F)(F)C(F)(F)C(F)(F)C(F)(F)C(F)(F)C(F)(F)C(F)(F)C(F)(F)C(F)(F)F
5.77

Write down measured mean nematode size ln(EXT) (ln) (Caenorhabditis elegans N2) for this molecule. O=C(OCCOCCOC(=O)c1ccccc1)c1ccccc1 [Di(ethylene glycol) dibenzoate]
5.82

Write down measured mean nematode size ln(EXT) (ln) (Caenorhabditis elegans N2) for this molecule. CCOP(=S)(OCC)Oc1ccc2c(C)c(Cl)c(=O)oc2c1
5.23

Write down measured mean nematode size ln(EXT) (ln) (Caenorhabditis elegans N2) for this molecule. [N-]=[N+]=[N-] [Sodium azide]
5.92

Write down measured mean nematode size ln(EXT) (ln) (Caenorhabditis elegans N2) for this molecule. CCN(CC)CCNc1ccc(CNC=O)c2sc3ccc(OC)cc3c(=O)c12
5.87

Write down measured mean nematode size ln(EXT) (ln) (Caenorhabditis elegans N2) for this molecule. CCCCOC(=O)C(C)Oc1ccc(Oc2ccc(C(F)(F)F)cn2)cc1 (stereo unspecified)
6.17

Write down measured mean nematode size ln(EXT) (ln) (Caenorhabditis elegans N2) for this molecule. Clc1cc(Cl)c(Cl)cc1Cl
5.98

----------
This listing pairs compounds with measured mean nematode size ln(EXT) (ln).
tested on: Caenorhabditis elegans N2; experiment: mean nematode size ln(EXT) after 48 h, plate-adjusted (DMSO control set to 6) (ln(EXT), control-adjusted); higher = larger nematodes / less growth inhibition; details: 1 µM; exposure time 48 h

These solved cases illustrate the format of a correct answer.
- compound: "O=C1CCCO1 [4-Butyrolactone]"
  mean nematode size ln(EXT) (ln): 6.08
- compound: "N#CCCCCC#N [Hexanedinitrile]"
  mean nematode size ln(EXT) (ln): 5.82
- compound: "CNC(=O)Oc1cccc2c1OC(C)(C)O2 [Bendiocarb]"
  mean nematode size ln(EXT) (ln): 5.85
- compound: "CNC(=O)Oc1ccccc1OC(C)C [Propoxur]"
  mean nematode size ln(EXT) (ln): 5.9

State its mean nematode size ln(EXT) (ln) for this compound: Cn1sc(Cl)cc1=O [5-Chloro-2-methyl-3(2H)-isothiazolone]
5.93

State its mean nematode size ln(EXT) (ln) for this compound: OC12N=C(c3ccccc3)SC1Cc1cc(Cl)ccc12 (configuration not stated)
5.74

State its mean nematode size ln(EXT) (ln) for this compound: CCNc1nc(NC(C)C)nc(SC)n1 [Ametryn]
6.82

----------
test system: Caenorhabditis elegans N2; assay: lowest effective concentration for larval growth inhibition (size below effect threshold); higher = less potent; details: exposure time 48 h
This listing pairs molecules with measured lowest effective concentration.

These solved cases illustrate the format of a correct answer.
- molecule: "CCCOC(=O)c1ccc(O)cc1 [Propylparaben]"
  lowest effective concentration: "> 200 µM"
- molecule: "C=C(C)[C@H]1Cc2c(ccc3c2O[C@@H]2COc4cc(OC)c(OC)cc4[C@@H]2C3=O)O1 [Rotenone]"
  lowest effective concentration: "200 µM"
- molecule: "Oc1ccc(Cl)cc1Cl [2,4-Dichlorophenol]"
  lowest effective concentration: "> 200 µM"

State its lowest effective concentration for this molecule: CCCCCCCC(=O)OC [Methyl octanoate]
200 µM

State its lowest effective concentration for this molecule: COc1cc(S(=O)(=O)O)c(C)cc1N=Nc1c(O)ccc2cc(S(=O)(=O)O)ccc12 [Allura red]
> 200 µM

State its lowest effective concentration for this molecule: CN1CCN(Cc2cc(-c3ccc4[nH]c(=O)oc4c3)co2)[C@@H](c2ccc(F)cc2)C1
10 µM

State its lowest effective concentration for this molecule: CN(C[C@@H](CC[N+]12CCC(C3CCCCC3)(CC1)CC2)c1ccc(Cl)c(Cl)c1)C(=O)c1cc(C(F)(F)F)cc(C(F)(F)F)c1
50 µM

State its lowest effective concentration for this molecule: CCCCCCCCCC(=O)O [Decanoic acid]
200 µM

State its lowest effective concentration for this molecule: CCCCCCCC(=O)O [Octanoic acid]
> 200 µM

State its lowest effective concentration for this molecule: Sc1nc2ccccc2s1 [2-Mercaptobenzothiazole]
100 µM

State its lowest effective concentration for this molecule: O=C1CCC(N2C(=O)c3ccccc3C2=O)C(=O)N1 (configuration not stated) [Thalidomide]
> 200 µM

State its lowest effective concentration for this molecule: CCCCOCCOCCO [2-(2-Butoxyethoxy)ethanol]
> 200 µM

----------
system: Caenorhabditis elegans N2; experiment: mean nematode size ln(EXT) after 48 h, plate-adjusted (DMSO control set to 6) (ln(EXT), control-adjusted); higher = larger nematodes / less growth inhibition; details: 200 µM; exposure time 48 h
measured quantity: mean nematode size ln(EXT) (ln)
Just the number, please, no unit attached.

State its mean nematode size ln(EXT) (ln) for this molecule: CSC(C)(C)/C=N/O
5.77

State its mean nematode size ln(EXT) (ln) for this molecule: O=C(Nc1ccccc1-c1ccc(Cl)cc1)c1cccnc1Cl
5.39

State its mean nematode size ln(EXT) (ln) for this molecule: CCCCCCc1ccc(O)cc1O
4.47

State its mean nematode size ln(EXT) (ln) for this molecule: Cc1nc(C)nc(N2C[C@@H](C)N(c3ccnc([C@@H](C)O)n3)[C@@H](C)C2)n1
5.85

State its mean nematode size ln(EXT) (ln) for this molecule: CS(=O)(=O)c1cc(C(F)(F)F)ccc1C(=O)c1cnoc1C1CC1
5.61

----------
test system: Caenorhabditis elegans N2; experiment: mean nematode size ln(EXT) after 48 h, plate-adjusted (DMSO control set to 6) (ln(EXT), control-adjusted); higher = larger nematodes / less growth inhibition; conditions: 0.5 µM; exposure time 48 h
measured quantity: mean nematode size ln(EXT) (ln)
Just the number, please, no unit attached.

State its mean nematode size ln(EXT) (ln) for this compound: OCCOCCO
5.91

State its mean nematode size ln(EXT) (ln) for this compound: COC(=O)c1ccccc1C(=O)OC [Dimethyl phthalate]
5.82

State its mean nematode size ln(EXT) (ln) for this compound: Cc1cc(-c2ccc(N)c(C)c2)ccc1N
5.82

State its mean nematode size ln(EXT) (ln) for this compound: O=C(O)C1(C(=O)Nc2ccc(Cl)cc2Cl)CC1 [Cyclanilide]
6.16

State its mean nematode size ln(EXT) (ln) for this compound: C[C@]12C=CC(=O)C=C1CC[C@H]1[C@@H]3C[C@@H](O)[C@](O)(C(=O)CO)[C@@]3(C)C[C@H](O)[C@@]12F
5.9

State its mean nematode size ln(EXT) (ln) for this compound: COc1ccc2cc(S(=O)(=O)N[C@H](CC(=O)N[C@H](Cc3ccc(CN4[C@H](C)CCC[C@@H]4C)cc3)C(=O)N(C)C(C)C)c3ccc4c(c3)OCO4)ccc2c1
5.87

State its mean nematode size ln(EXT) (ln) for this compound: CCC(C)c1ccccc1O (centres undefined)
5.9

State its mean nematode size ln(EXT) (ln) for this compound: O=C(NC(=O)c1cc(F)c(F)cc1Cl)Nc1cc(F)ccc1N1CCC(C(=O)O)CC1
5.94

State its mean nematode size ln(EXT) (ln) for this compound: CCOP(=S)(Oc1cnc(C(C)(C)C)nc1)OC(C)C (centres undefined)
6

----------
test system: Caenorhabditis elegans N2; assay: mean nematode size ln(EXT) after 48 h, plate-adjusted (DMSO control set to 6) (ln(EXT), control-adjusted); higher = larger nematodes / less growth inhibition; settings: 10 µM; exposure time 48 h
Counter-ions that a name gives are not always drawn.
measured quantity: mean nematode size ln(EXT) (ln)
Just the number, please, no unit attached.

These solved cases illustrate the format of a correct answer.
- molecule: "CC(C)=CCC/C(C)=C\\CO [cis-3,7-Dimethyl-2,6-octadien-1-ol]"
  mean nematode size ln(EXT) (ln): 5.75
- molecule: "C#CCOC(=O)[C@@H](C)Oc1ccc(Oc2ncc(Cl)cc2F)cc1"
  mean nematode size ln(EXT) (ln): 5.94
- molecule: "CC(C)(C)c1cc(/C=C2\\SC(=N)NC2=O)cc(C(C)(C)C)c1O [Darbufelone mesylate]"
  mean nematode size ln(EXT) (ln): 5.48

# context switch: different molecule, same mean nematode size ln(EXT) (ln)
State its mean nematode size ln(EXT) (ln) for this molecule: CC1(C)C(C=C(Cl)Cl)C1C(=O)OCc1cccc(Oc2ccccc2)c1 (centres undefined)
5.56
